system: morningglory; assay: Test C pre-/postemergence test; assay type: in vivo, Ipomoea coccinea; conditions: Postemergence, 31 g ai/ha
PROPERTY_LABEL: Plant response rating (0 to 100), Morningglory

COMPOUND	MEAS_VALUE
Cc1cc[n+]([O-])c([S+]([O-])Cc2c(C(F)(F)F)nn(C)c2OC(F)F)c1 (centres unmarked)	40
Cn1nc(C(F)(F)F)c(C[S+]([O-])c2ccc(Cl)c[n+]2[O-])c1OCC(F)(F)F (racemic)	0
CCn1nc(C(F)(F)F)c(CS(=O)(=O)c2cc(C)cc[n+]2[O-])c1OCC(F)(F)F	0
Cn1nc(C(F)(F)F)c(C[S+]([O-])c2cccc[n+]2[O-])c1OCC(F)(F)C(F)(F)F (centres unmarked)	0
Cn1nc(C(F)(F)F)c(C[S+]([O-])c2ccc(Cl)c[n+]2[O-])c1OC(F)F (centres unmarked)	10

----------
Recorded Plant response rating (0 to 100), Corn values for a group of compounds are listed next.
system: corn; test: Test C pre-/postemergence test; type: in vivo, Zea mays; details: Postemergence, 31 g ai/ha

COMPOUND	Plant response rating (0 to 100), Corn
Cn1nc(C(F)(F)F)c(C[S+]([O-])c2cccc[n+]2[O-])c1OCC(F)(F)C(F)(F)F (centres unmarked)	0
Cn1nc(C(F)(F)F)c(C[S+]([O-])c2ccc(Cl)c[n+]2[O-])c1OC(F)F (centres unmarked)	0
[O-][n+]1cc(Cl)ccc1[S+]([O-])Cc1c(C(F)(F)F)nn(CC(F)(F)F)c1Cl (centres unmarked)	0
Cn1nc(C(F)(F)F)c(C[S+]([O-])c2ccc(F)c[n+]2[O-])c1OCC(F)(F)F (centres unmarked)	0
CCn1nc(C(F)(F)F)c(C[S+]([O-])c2cccc[n+]2[O-])c1OCC(F)(F)F (racemic)	0

----------
tested on: giant foxtail; assay: Test A pre-/postemergence greenhouse test; format: in vivo, Setaria faberi; conditions: Postemergence, 500 g ai/ha; 0 to 100 scale, 0 is no effect, 100 is complete control
Mark fulfilled only for Foxtail, Giant plant response rating values smaller than 80; exact matches and larger values are not fulfilled.

COMPOUND	ASSIGNED_CATEGORY
Cn1nc(C(F)(F)F)c(CS(=O)(=O)c2ccc(F)c[n+]2[O-])c1Cl	not fulfilled
O=S(=O)(Cc1c(C(F)(F)F)nn(CC(F)(F)F)c1Cl)c1ccc(Cl)c[n+]1[O-]	fulfilled
Cn1nc(C(F)(F)F)c(C(Cl)S(=O)(=O)c2cccc[n+]2[O-])c1Cl (stereo not shown)	fulfilled
CC(c1c(C(F)(F)F)nn(C)c1Cl)[S+]([O-])c1cccc[n+]1[O-] (mixture of isomers)	fulfilled
CCn1nc(C(F)(F)F)c(C(C)S(=O)(=O)c2cccc[n+]2[O-])c1OCC(F)(F)F (stereo not shown)	not fulfilled
Cn1nc(C(F)(F)F)c(CS(=O)(=O)c2cccc[n+]2[O-])c1OCC(F)(F)F	not fulfilled
Cn1nc(C(F)(F)F)c(CS(=O)(=O)c2ccc(Br)c[n+]2[O-])c1OC(F)F	fulfilled
CC(c1c(C(F)(F)F)nn(C)c1Cl)S(=O)(=O)c1cccc[n+]1[O-] (stereo not shown)	not fulfilled

----------
system: lambsquarters; test: Test G preemergence test; type: in vivo, Chenopodium album; conditions: 125 g ai/ha, scale 0 to 100
// Plant response rating, Lambsquarters lookup, one value per entry
PROPERTY_LABEL: Plant response rating, Lambsquarters

MOLECULE	MEAS_VALUE
Cn1nc(C(F)(F)F)c(CS(=O)(=O)c2cccc[n+]2[O-])c1OC(F)F [Compound 4]	10
Cn1nc(C(F)(F)F)c(CS(=O)(=O)c2ccc(Cl)c[n+]2[O-])c1OC(F)F [Compound 7]	0
Cc1cc[n+]([O-])c(S(=O)(=O)Cc2c(C(F)(F)F)nn(C)c2OC(F)F)c1 [Compound 2]	10
Cn1nc(C(F)(F)F)c(C[S+]([O-])c2cccc[n+]2[O-])c1OC(F)F (stereo not shown) [Compound 3]	100
